The measured values listed here are drawn from ChEMBL document CHEMBL3627707.

Assay: Growth inhibition of human HT1080 cells after 48 hrs by alamar blue assay
Format: functional
Conditions: HT-1080, 48 h
readout: GI50 (nM)
Give bare numbers, in nM.

Guide cases for GI50, answers given:
{"sample-smiles": "CC(C)Oc1ccc(C(=O)Cn2ccnc2)cc1-n1c(CN2CCN(C(=O)COc3ccc(Cl)cc3)CC2)nc2ccccc2c1=O", "GI50 [nM]": 314}
{"sample-smiles": "CC(=O)c1ccc(OC(C)C)c(-n2c(CN3CCN(C(=O)COc4ccc(Cl)cc4)CC3)nc3ccccc3c2=O)c1", "GI50 [nM]": 59}
{"sample-smiles": "CC(C)Oc1ccc(C(=O)CN2CCNCC2)cc1-n1c(CN2CCN(C(=O)COc3ccc(Cl)cc3)CC2)nc2ccccc2c1=O", "GI50 [nM]": 550}

Now turn to the next compound.
Exam item: Which GI50 is reported for this compound? "CC(C)Oc1ccc(CN2CCNCC2)cc1-n1c(CN2CCN(C(=O)COc3ccc(Cl)cc3)CC2)nc2ccccc2c1=O"
Marked response: 1200

----------
Assay: Half life in mouse liver microsomes by LC-MS/MS analysis
Assay type: ADME
Details: liver microsomes
readout: half-life (min)
Numbers only, in min.

{"sample-smiles": "CC(C)Oc1ccc(CN2CCNCC2)cc1-n1c(CN2CCN(C(=O)COc3ccc(Cl)cc3)CC2)nc2ccccc2c1=O", "readout": "half-life", "observed-value": 55.3}

Now turn to the next compound.
Exam item: Which half-life is reported for this compound? "CC(C)Oc1ccc(C(=O)Cn2ccnc2)cc1-n1c(CN2CCN(C(=O)COc3ccc(Cl)cc3)CC2)nc2ccccc2c1=O"
Marked response: 78.5

----------
Experiment: Metabolic stability in mouse liver microsomes assessed as compound remaining after 15 mins by LC-MS/MS analysis
Assay type: ADME
Conditions: read-out: Stability
Threshold check on remaining at […]: strictly below 3% is 1; on or above 3% is -1.

Worked set:
{"sample-smiles": "C=CCN1CCN(CC(=O)c2ccc(OC(C)C)c(-n3c(CN4CCN(C(=O)COc5ccc(Cl)cc5)CC4)nc4ccccc4c3=O)c2)CC1", "cat": 1}
{"sample-smiles": "CC(C)Oc1ccc(C(=O)CN2CCNCC2)cc1-n1c(CN2CCN(C(=O)COc3ccc(Cl)cc3)CC2)nc2ccccc2c1=O", "cat": -1}
{"sample-smiles": "CC(C)Oc1ccc(CN2CCNCC2)cc1-n1c(CN2CCN(C(=O)COc3ccc(Cl)cc3)CC2)nc2ccccc2c1=O", "cat": -1}
{"sample-smiles": "CC(C)Oc1ccc(C(=O)Cn2ccnc2)cc1-n1c(CN2CCN(C(=O)COc3ccc(Cl)cc3)CC2)nc2ccccc2c1=O", "cat": -1}
{"sample-smiles": "CC(C)Oc1ccc(C(=O)CF)cc1-n1c(CN2CCN(C(=O)COc3ccc(Cl)cc3)CC2)nc2ccccc2c1=O", "cat": 1}

Exam item: Input "CC(=O)c1ccc(OC(C)C)c(-n2c(CN3CCN(C(=O)COc4ccc(Cl)cc4)CC3)nc3ccccc3c2=O)c1" ; condition: remaining at […] strictly below 3%. Does it hold?
Marked response: 1

Exam item: Same lookup for "COc1ccc(CN2CCN(CC(=O)c3ccc(OC(C)C)c(-n4c(CN5CCN(C(=O)COc6ccc(Cl)cc6)CC5)nc5ccccc5c4=O)c3)CC2)cc1" , please.
Marked response: 1

Exam item: Same lookup for "CC(C)Oc1ccc(C(=O)CN2CCOCC2)cc1-n1c(CN2CCN(C(=O)COc3ccc(Cl)cc3)CC2)nc2ccccc2c1=O" , please.
Marked response: -1
